- assayed_target: bovine trypsin (Bos taurus)
- Sequence (P00760 24-246): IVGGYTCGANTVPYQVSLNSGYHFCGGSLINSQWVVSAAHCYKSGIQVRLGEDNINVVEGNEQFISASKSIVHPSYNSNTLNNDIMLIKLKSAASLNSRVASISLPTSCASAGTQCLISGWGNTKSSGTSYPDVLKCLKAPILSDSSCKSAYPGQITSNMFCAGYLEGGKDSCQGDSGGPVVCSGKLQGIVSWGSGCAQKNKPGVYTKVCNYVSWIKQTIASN
pIC50: −log10 of the molar value.
Recorded pIC50 by entry

>  <compound>
C#CCCCC(=O)OCC1=CC2(CC=C(C)C)C(=O)OC2C1 (centres unmarked) [Compound 43]

>  <pIC50>
< 3.82

$$$$

Consider the record given below.
## Input Identify the measured pIC50 of C#CCCC[C@@H]1OC(=O)[C@H]1CCCC [Compound 31] for bovine trypsin (Bos taurus).
## Output < 3.82

----------
- assayed_target: bovine chymotrypsin (Bos taurus, UniProt P00766)
pIC50: −log10 of the molar value.
parameter: pIC50

>  <compound>
C#CCCC[C@@H]1OC(=O)[C@H]1CCCC

>  <pIC50>
< 4.30

$$$$

Now for a further compound.
## Input I would be grateful if you could share the reported pIC50 for C#CCCCC(=O)OCC1=CC2(CC=C(C)C)C(=O)OC2C1 (centres unmarked) .
## Output < 4.30

----------
- assayed_target: UniProt P09391
- assay_notes: Gel-based competitive activity-based probe profiling (competitive ABPP)
- Format: biochemical, E. coli
- measurement_parameters: 100 µM compound, 45 nM GlpG, 1 µM probe EK2
parameter: blocking of EK2 labeling of GlpG (gel-based competitive ABPP)

Solved entries (count: 6):
>  <compound>
Nc1ccc2c(Cl)c(OCCc3cn(Cc4ccccc4)nn3)oc(=O)c2c1

>  <value>
able to block

$$$$
>  <compound>
Nc1ccc2c(Cl)c(OCCCCCc3ccccc3)oc(=O)c2c1

>  <value>
able to block

$$$$
>  <compound>
O=c1oc(OCCBr)c(Cl)c2ccc([N+](=O)[O-])cc12

>  <value>
able to block

$$$$
>  <compound>
CCCCOc1oc(=O)c2cc(N)ccc2c1Cl

>  <value>
able to block

$$$$
>  <compound>
C#CCCC[C@@H]1OC(=O)[C@H]1CCCC

>  <value>
able to block

$$$$
>  <compound>
O=c1oc(OCCCCCc2ccccc2)c(Cl)c2ccc([N+](=O)[O-])cc12

>  <value>
able to block

$$$$

## Input Suppose we examine the compound `CCCCOc1oc(=O)c2cc([N+](=O)[O-])ccc2c1Cl` ; what blocking of EK2 labeling of GlpG (gel-based competitive ABPP) value has been reported?
## Output able to block

## Input For C#CCCCC(=O)OCC1=CC2(CC=C(C)C)C(=O)OC2C1 (centres unmarked) , what is its reported blocking of EK2 labeling of GlpG (gel-based competitive ABPP)?
## Output able to block

----------
- assayed_target: E. coli rhomboid GlpG (Escherichia coli, UniProt P09391)
- Sequence (P09391 whole entry): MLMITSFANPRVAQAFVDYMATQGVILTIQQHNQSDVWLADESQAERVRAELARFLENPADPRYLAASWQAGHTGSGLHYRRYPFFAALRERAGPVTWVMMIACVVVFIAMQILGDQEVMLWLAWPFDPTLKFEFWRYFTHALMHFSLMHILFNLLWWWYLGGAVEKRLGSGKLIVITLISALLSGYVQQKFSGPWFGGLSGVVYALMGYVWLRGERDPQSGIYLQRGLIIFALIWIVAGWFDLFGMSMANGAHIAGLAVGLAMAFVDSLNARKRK
The reader will find reported log10 IC50 values listed item by item below.
Field: value | Transform: log10 | Quantity: IC50 | Unit: µM

>  <molecule>
Nc1ccc2c(Cl)c(OCCc3ccccc3)oc(=O)c2c1 [S016, reference compound]

>  <log10 IC50>
0.04

$$$$
>  <molecule>
CCCCOc1oc(=O)c2cc([N+](=O)[O-])ccc2c1Cl [Compound 11]

>  <log10 IC50>
0.74

$$$$
>  <molecule>
Nc1ccc2c(Cl)c(OCCCCCc3ccccc3)oc(=O)c2c1 [Compound 2]

>  <log10 IC50>
-0.12

$$$$
>  <molecule>
O=c1oc(OCCBr)c(Cl)c2ccc([N+](=O)[O-])cc12 [Compound 12]

>  <log10 IC50>
0.92

$$$$

## Input Please state recorded log10 IC50 (tested on E. coli rhomboid GlpG (Escherichia coli, UniProt P09391)) of CCCCOc1oc(=O)c2cc(N)ccc2c1Cl [Compound 3]
## Output -0.40

## Input So what log10 IC50 did C#CCCC[C@@H]1OC(=O)[C@H]1CCCC [Compound 31] get with E. coli rhomboid GlpG (Escherichia coli, UniProt P09391)?
## Output 1.41

## Input Request - read-out log10 IC50 | tested on E. coli rhomboid GlpG (Escherichia coli, UniProt P09391) | molecule O=c1oc(OCCCCCc2ccccc2)c(Cl)c2ccc([N+](=O)[O-])cc12 [Compound 10]
## Output 0.72

## Input Give log10 IC50 (E. coli rhomboid GlpG (Escherichia coli, UniProt P09391)) of the following molecule: C#CCCCC(=O)OCC1=CC2(CC=C(C)C)C(=O)OC2C1 (stereo not drawn) [Compound 43]
## Output 1.64

## Input Please provide the recorded log10 IC50 for Nc1ccc2c(Cl)c(OCCc3cn(Cc4ccccc4)nn3)oc(=O)c2c1 [Compound 27] , tested on E. coli rhomboid GlpG (Escherichia coli, UniProt P09391).
## Output 0.49
